Tested on: P12-Ichikawa
Assay: AUC of viability dose-response curve (% viability x log10 dose units); higher = less sensitive
Conditions: RPMI 5 mM glucose + 10% FBS; 48 h
readout.label: AUC of viability dose-response curve

# line.notation, readout.label, readout.number
records = [
    ("CN1CCCN(CC1)C2=CC=C3C(=O)\\C(=C/4SC5=C(C=CC=C5)N4C3=N2)C(=O)NCC6=CN=C(C)C=N6", "AUC of viability dose-response curve", 410),
    ("COc1c(C)c2c(c(O)c1C/C=C(\\C)CCC(=O)O)C(=O)OC2", "AUC of viability dose-response curve", 392),
    ("COc1cc2c(cc1OC)CN(CCc1ccc(NC(=O)c3cc(OC)c(OC)cc3NC(=O)c3cnc4ccccc4c3)cc1)CC2", "AUC of viability dose-response curve", 401),
]

* * *

System: SEM cells
Experiment: cell viability relative to DMSO control; higher = less cytotoxic
Conditions: RPMI 5 mM glucose + 10% dialyzed FBS; 48 h; 0.0632 µM
In this section, each of the molecules is paired with its reported cell viability.

# molecule, cell viability (%)
data = [
    ("CCCCOc1c(C(=O)c2c(F)cc(C)cc2F)cnc2[nH]ncc12", 107),
    ("CC(N[C@H]1CCCC[C@@H]1NC(=O)c1ccc(Cl)cc1)c1cccc2ccccc12 (stereo not given in full)", 116),
    ("COC(=O)c1ccc2c(c1)NC(=O)/C2=C(\\Nc1ccc(N(C)C(=O)CN2CCN(C)CC2)cc1)c1ccccc1", 49.2),
    ("CN(C)CC(C)(C)CNc1nn2c(-c3ccccc3)nnc2cc1C1CCC1", 105),
    ("CC(C(=O)O)c1ccc2c(c1)CC(=O)c1ccccc1S2 (stereo not given)", 124),
]

* * *

Tested on: NOMO1
Test: cell viability relative to DMSO control; higher = less cytotoxic
Details: RPMI 5 mM glucose + 10% dialyzed FBS; 48 h; 0.00234 µM
readout.label: cell viability (%)

# compound, readout.label, readout.number
measured = [
    ("COc1cc[nH]c2ncc(C(=O)C(=O)N3CCN(C(=O)c4ccccc4)C[C@H]3C)c1-2", "cell viability", 117),
    ("O=C(CCCN1CCN(c2ccc(F)cc2)CC1)NC1c2ccccc2CSc2ccccc21 (centres undefined)", "cell viability", 120),
    ("Cc1cccc(Nc2ccncc2[S+](=O)([O-])NC(=O)NC(C)C)c1", "cell viability", 91.4),
    ("CNc1nc(Nc2cnn([C@H]3CCN(C4COC4)C[C@@H]3F)c2Cl)ncc1C(F)(F)F", "cell viability", 110),
    ("CCOC(=O)\\C1=C\\[C@]2(CC)CCCN3CCC4=C([C@H]23)[N]1C5=C4C=CC=C5", "cell viability", 105),
    ("C[C@]12CC[C@H]3[C@@H](CCC4=CC(=O)CC[C@@H]43)[C@@H]1CC[C@@H]2OC(=O)CCc1ccccc1", "cell viability", 127),
    ("CC1=CC(=CC(=C1C\\C2=N\\CCN2)C)C(C)(C)C", "cell viability", 106),
    ("CNCC[C@H](Oc1cccc2ccccc12)c1cccs1", "cell viability", 127),
    ("CC12CC3CC(C)(C1)CC(N)(C3)C2", "cell viability", 105),
]

* * *

Tested on: NOMO1
Experiment: cell viability relative to DMSO control; higher = less cytotoxic
Settings: RPMI 5 mM glucose + 10% dialyzed FBS; 48 h; 5.12 µM

# line.notation, u, cell viability
data = [
    ("N[C@@H]1CONC1=O", "%", 96.2),
    ("NC(=O)c1ccc(N(C(N)=O)c2c(F)cccc2F)nc1-c1ccc(F)cc1F", "%", 93.6),
    ("CC(=O)Oc1ccccc1C(=O)Nc1ncc([N+](=O)[O-])s1", "%", 86.3),
]

* * *

Tested on: SEM cells
Assay: cell viability relative to DMSO control; higher = less cytotoxic
Conditions: RPMI 5 mM glucose + 10% FBS; 48 h; 0.0632 µM

# compound, cell viability
data = [
    ("Nc1ncnc2c1c(-c1cccc(OCc3ccccc3)c1)cn2[C@H]1C[C@@H](CN2CCC2)C1", "112%"),
    ("Cc1coc2c1C(=O)C(=O)c1c-2ccc2c1CCCC2(C)C", "101%"),
    ("COC1=C(OCCCN2CCOCC2)C=C3N=CC=C(OC4=CC=C(C=C4F)\\C5=C\\N=C(\\NC6=CC=C(F)C=C6)N(C)C5=O)C3=C1", "79.4%"),
    ("CC(C)OC(=O)[C@H](C)N[P@](=O)(OC[C@H]1O[C@@H](N2\\C=C/C(=O)NC2=O)[C@](C)(F)[C@@H]1O)OC3=CC=CC=C3", "121%"),
    ("CC(N[C@H]1CCCC[C@@H]1NC(=O)c1ccc(Cl)cc1)c1cccc2ccccc12 (stereo not given in full)", "107%"),
]

* * *

System: SEM cells
Assay: cell viability relative to DMSO control; higher = less cytotoxic
Conditions: HPLM + 10% dialyzed FBS; 48 h; 0.00702 µM
Measured cell viability of individual entries

# compound, cell viability / %
measured = [
    ("CC(N[C@H]1CCCC[C@@H]1NC(=O)c1ccc(Cl)cc1)c1cccc2ccccc12 (stereo not given in full)", 110),
    ("CN1\\C=N/C2=CC=C(NC3=CC(=CC=C3C)NC(=O)C4=CC(=CC=C4)C(C)(C)C#N)C=C2C1=O", 112),
    ("CC[C@@H]([C@H](C)O)n1ncn(-c2ccc(N3CCN(c4ccc(OCC5CO[C@@](Cn6cncn6)(c6ccc(F)cc6F)C5)cc4)CC3)cc2)c1=O (stereo not given in full)", 107),
    ("O=C(O)c1cccnc1Nc1cccc(C(F)(F)F)c1", 99.1),
    ("OCC(O)C(O)C(O)CO (stereo not given)", 98.2),
    ("COC1=C(OCCCN2CCOCC2)C=C3N=CC=C(OC4=CC=C(C=C4F)\\C5=C\\N=C(\\NC6=CC=C(F)C=C6)N(C)C5=O)C3=C1", 110),
    ("O=C(CCCN1CCN(c2ccc(F)cc2)CC1)NC1c2ccccc2CSc2ccccc21 (stereo not given)", 116),
    ("Cc1cccc(Nc2ccncc2[S+](=O)([O-])NC(=O)NC(C)C)c1", 88),
    ("Cc1cc2c(C(N)=O)cccc2n1-c1nc2c(c(NCc3ccccc3)n1)COCC2", 73),
    ("Nc1ncnc2c1c(-c1cccc(OCc3ccccc3)c1)cn2[C@H]1C[C@@H](CN2CCC2)C1", 119),
    ("CC12CC3CC(C)(C1)CC(N)(C3)C2", 93.2),
    ("COC(=O)c1ccc2c(c1)NC(=O)/C2=C(\\Nc1ccc(N(C)C(=O)CN2CCN(C)CC2)cc1)c1ccccc1", 60.3),
    ("O=C(O)c1cc(/N=N/c2ccc([S+](=O)([O-])Nc3ccccn3)cc2)ccc1O", 95.3),
    ("O=C(O)CCNC(=O)c1ccc(/N=N/c2ccc(O)c(C(=O)O)c2)cc1", 118),
    ("O=P(O)(O)C(O)(Cn1ccnc1)P(=O)(O)O", 19.2),
]

* * *

The entries below come with measured cell viability values attached.
System: P12-Ichikawa
Assay: cell viability relative to DMSO control; higher = less cytotoxic
Conditions: RPMI 5 mM glucose + 10% dialyzed FBS; 48 h; 15.4 µM
readout.label: cell viability (%)

# compound, readout.number
measured = [
    ("CN1CCCN(CC1)C2=CC=C3C(=O)\\C(=C/4SC5=C(C=CC=C5)N4C3=N2)C(=O)NCC6=CN=C(C)C=N6", 82.2),
    ("O=C(CCCN1CCN(c2ccc(F)cc2)CC1)NC1c2ccccc2CSc2ccccc21 (stereo not drawn)", 77.7),
    ("CN1CC(=O)N2[C@H](c3ccc4c(c3)OCO4)c3[nH]c4ccccc4c3C[C@@H]2C1=O", 81),
]

* * *

System: SEM cells
Test: cell viability relative to DMSO control; higher = less cytotoxic
Settings: RPMI 5 mM glucose + 10% FBS; 48 h; 5.12 µM
# maps each entry to its cell viability

# compound, cell viability (%)
data = [
    ("CCCCN(CCCC)CC(O)c1cc(Cl)cc2c1-c1ccc(Cl)cc1/C2=C/c1ccc(Cl)cc1 (stereo unspecified)", 98.6),
    ("Cc1ccc([S+](=O)([O-])OCC(=O)Nc2ccc(C(=O)O)c(O)c2)cc1", 153),
    ("COC1=C(OCCCN2CCOCC2)C=CC\\3=C1/N=C(/NC(=O)C4=CN=C(N)N=C4)N5CC/N=C35", 72),
    ("Nc1ccc([S+](=O)([O-])Nc2ccnn2-c2ccccc2)cc1", 89),
    ("CC(N[C@H]1CCCC[C@@H]1NC(=O)c1ccc(Cl)cc1)c1cccc2ccccc12 (stereo partly specified)", 119),
    ("CCCCC(C)(C)[C@H](O)/C=C/[C@H]1[C@H](O)CC(=O)[C@@H]1C/C=C\\CCCC(=O)O", 51.5),
    ("CN1CC(=O)N2[C@H](c3ccc4c(c3)OCO4)c3[nH]c4ccccc4c3C[C@@H]2C1=O", 82.1),
    ("CN(C)CC(C)(C)CNc1nn2c(-c3ccccc3)nnc2cc1C1CCC1", 103),
    ("CCCCOc1c(C(=O)c2c(F)cc(C)cc2F)cnc2[nH]ncc12", 60.6),
    ("CC12CC3CC(C)(C1)CC(N)(C3)C2", 133),
    ("O=C(O)c1cccnc1Nc1cccc(C(F)(F)F)c1", 98.5),
]

The measurements presented in this section are drawn from the supplement of paper PMC11451515.
